Measured melting point, listed per entry for reference.
property: melting point

[[record]]
substance_smiles = "c1ccc2c(-c3nc(NC4CCCCC4)c4ccccc4n3)nccc2c1"
property = "melting point"
result = "274.8 to 276.9 °C"

[[record]]
substance_smiles = "Cc1cccc(-c2nc(NC3CCCCC3)c3ccccc3n2)n1"
property = "melting point"
result = "253.1 to 254.9 °C"

[[record]]
substance_smiles = "Clc1ccc(Nc2nc(-c3nccc4ccccc34)nc3ccccc23)cc1"
property = "melting point"
result = "279 to 280.5 °C"

[[record]]
substance_smiles = "Clc1ccc(Nc2nc(-c3cccc(Cl)n3)nc3ccccc23)cc1"
property = "melting point"
result = "211.9 to 213.2 °C"

[[record]]
substance_smiles = "Cc1cccc(-c2nc(NCc3ccc(Cl)cc3)c3ccccc3n2)n1"
property = "melting point"
result = "209.9 to 212.2 °C"

[[record]]
substance_smiles = "COc1cccc(-c2nc(Nc3ccc(Cl)cc3)c3ccccc3n2)n1"
property = "melting point"
result = "156.8 to 160 °C"

[[record]]
substance_smiles = "O=C(c1ccccc1)c1cccnc1-c1nc(NC2CCCCC2)c2ccccc2n1"
property = "melting point"
result = "204 to 208 °C"

[[record]]
substance_smiles = "Clc1cccc(-c2nc(NC3CCCCC3)c3ccccc3n2)n1"
property = "melting point"
result = "218.4 to 220.9 °C"

[[record]]
substance_smiles = "Clc1ccc(CNc2nc(-c3cccc(Cl)n3)nc3ccccc23)cc1"
property = "melting point"
result = "187.4 to 189.7 °C"


---

Measured melting point, listed per entry for reference.
property: melting point

[[record]]
substance_smiles = "Fc1cccc(-c2nc(Nc3ccc(Cl)cc3)c3ccccc3n2)n1"
property = "melting point"
result = "118.3 to 121.4 °C"

[[record]]
substance_smiles = "Clc1ccc(CNc2nc(-c3nccc4ccccc34)nc3ccccc23)cc1"
property = "melting point"
result = "221.4 to 224.5 °C"

[[record]]
substance_smiles = "Oc1cccc(-c2nc(Nc3ccc(Cl)cc3)c3ccccc3n2)n1"
property = "melting point"
result = "> 350 °C"

[[record]]
substance_smiles = "Clc1ccc(Nc2nc(-c3cccc(Br)n3)nc3ccccc23)cc1"
property = "melting point"
result = "242.4 to 247.9 °C"

[[record]]
substance_smiles = "Cc1cccc(-c2nc(Nc3ccc(Cl)cc3)c3ccccc3n2)n1"
property = "melting point"
result = "256.1 to 259.1 °C"

